Catalogue of Tm shift relative to glycine control readings, one per entry.
tested on: Glutamate receptor ionotropic, NMDA 3A (GRIN3A) ligand-binding domain; experiment: binders of NR3A ligand-binding domain, primary screen, biophysical, differential scanning fluorimetry, uHTS (AID 1259313); settings: NR3A LBD differential scanning fluorimetry, at 25 µM, stronger effect = higher value
About 8,500 (2.5%) of roughly 340,000 compounds were called active. For the sample, actives were picked, then their nearest neighbours and some compounds at random.
Reply numerically in %, unit not repeated.

Use the examples below as a reference point.
COMPOUND	UNIT NAME	EXPERIMENTAL RESULT
CC[N+]1(C)CCCC(OC(=O)C(O)(c2ccccc2)c2ccccc2)C1 (stereo not given)	%	1.89
CC1=C(C(=O)Nc2ccccc2)S(=O)(=O)CCO1	%	0.53
CN1CCN(C(=S)SCC(=O)Nc2ccc(Cl)cc2C(=O)c2ccccc2)CC1	%	3.94
O=C1NC(=O)N(Cc2ccco2)C(=O)/C1=C\c1ccc(-c2ccc(F)cc2)o1	%	0.53

Shift focus to the following entry.
input: Record lookup: for Glutamate receptor ionotropic, NMDA 3A (GRIN3A) ligand-binding domain, what Tm shift relative to glycine control belongs to CCN1C(=O)C(=Cc2c(C)n(CC(=O)NCC3CCCO3)c3ccccc23)C(=O)N(CC)C1=S (stereo not given) ?
output: 0.27
